Listed here: items and their measured cytotoxicity at 10 µM.
Assay: Toxicity liver stage against HepG2, at 10uM
Format: cell-based
Set-up: test concentration 10 uM, cell line HepG2-A16-CD81EGFP
Settings: human, HepG2-A16-CD81EGFP cells; read-out: INHIBITION
All answers are understood in %, so give the number only.

INSERT INTO measurements (compound, measuredquantity, quantityunit, observedvalue) VALUES
  ('Cc1nc(C)n(CC2CCCCN2CCCS(N)(=O)=O)n1 (configuration not stated)', 'cytotoxicity at 10 µM', '%', -3.73),
  ('CN(Cc1ncnn1C)C(=O)c1ccccc1NCc1ccccc1', 'cytotoxicity at 10 µM', '%', 15.3),
  ('O=S(=O)(c1cccc(F)c1)N1CCCCC1c1ccn[nH]1 (configuration not stated)', 'cytotoxicity at 10 µM', '%', 0.692),
  ('Cc1cccc(CC(=O)Nc2cnn(C3CCOC3)c2)c1 (configuration not stated)', 'cytotoxicity at 10 µM', '%', -0.813),
  ('NC1CCc2c(ccc(=O)n2CC2CC2)C1 (configuration not stated)', 'cytotoxicity at 10 µM', '%', -4.37);

Q. // lookup cytotoxicity at 10 µM for `CCCC(=O)N1CCC(C(=O)NCCNc2ncccn2)CC1`
A. -20

Q. # cytotoxicity at 10 µM lookup, item CCN(CC)C(=O)CNC(=O)N1CCC(c2ccc(OC)cc2)C1 (configuration not stated)
A. -5.51

Q. Could you share which cytotoxicity at 10 µM value was measured for Cc1cc(C)cc(NC(=O)CN2CCCC(n3cncn3)C2)c1 (configuration not stated) ?
A. -9.93

Q. Consider the compound `CNC(=O)c1cccnc1NCCOc1ccc(CC#N)cc1` and give its measured cytotoxicity at 10 µM.
A. -1.53

Q. I would be grateful if you could share the reported cytotoxicity at 10 µM for NC(=O)C(NC1CCN(CC2CCCCC2)CC1)c1ccc(F)cc1 (configuration not stated) .
A. -5.14

Q. Would you mind telling me what cytotoxicity at 10 µM value was observed for `N#CCCCS(=O)(=O)NC(=O)c1cccc(Cl)c1F` ?
A. -2.8

Q. # get_value(readout='cytotoxicity at 10 µM', item= `CC(C)c1nc(CN(C)C(=O)c2ccc3c(c2)OCO3)cs1` )
A. -1.1

---

Assay: Toxicity liver stage against HepG2, at 10uM
Format: cell-based
Design: test concentration 10 uM, cell line HepG2-A16-CD81EGFP
Details: human, HepG2-A16-CD81EGFP cells; read-out: INHIBITION
measuredQuantity: cytotoxicity at 10 µM (%)
Please state the figure in %; there is no need to write the unit.

In the examples that follow, each entry is paired with its recorded cytotoxicity at 10 µM.
INSERT INTO results (compound, measuredquantity, observedvalue) VALUES
  ('COCC1CN(Cc2c(C)noc2C)Cc2ccnn2C1 (centres undefined)', 'cytotoxicity at 10 µM', -89.3),
  ('CN(C)c1ncc(NC(=O)c2ccccc2C(F)(F)F)cn1', 'cytotoxicity at 10 µM', -9.66),
  ('N#Cc1ccc(S(=O)(=O)N2CSCC2C(=O)NCC(F)(F)F)cc1 (centres undefined)', 'cytotoxicity at 10 µM', -7.6),
  ('Cc1ccc(C(=O)NC2CCCN(S(C)(=O)=O)C2)c(=O)[nH]1 (centres undefined)', 'cytotoxicity at 10 µM', 10.6),
  ('CN(C)S(=O)(=O)Nc1ccc(Oc2ccc3c(c2)OCO3)cc1', 'cytotoxicity at 10 µM', 1.43);

Q. GET /values?readout=cytotoxicity at 10 µM&item= `Cc1nc(CNCc2ccc(N3CCN(C)CC3)nc2)cs1`
A. -5.33

Q. Could you tell me which cytotoxicity at 10 µM is on file for NCC1Cc2cc(F)cc(-c3cnccn3)c2O1 (centres undefined) ?
A. -9.78

Q. Fill in: cytotoxicity at 10 µM of NC(=O)c1cccc(CC2CCN(C(=O)CO)C2)c1 (centres undefined) is ___
A. -23.7

---

Test: Toxicity liver stage against HepG2, at 10uM
Assay type: cell-based
Design: test concentration 10 uM, cell line HepG2-A16-CD81EGFP
Conditions: human, HepG2-A16-CD81EGFP cells; read-out: INHIBITION
measuredQuantity: cytotoxicity at 10 µM

INSERT INTO measurements (molecule, measuredquantity, observedvalue) VALUES
  ('O=C(NC1CCCN(c2ccccc2Cl)C1)c1ccc(=O)[nH]n1 (configuration not stated)', 'cytotoxicity at 10 µM', '-4.46%');

Q. Name the reported cytotoxicity at 10 µM value associated with the molecule Cc1cc(C)c(CNC(=O)CC2CCCO2)c(=O)[nH]1 (configuration not stated)
A. -10.7%

Q. Please look up its cytotoxicity at 10 µM: `CCN1CCN(C2CCN(Cc3ccc(Cl)s3)CC2)C1=O`
A. 13.1%

Q. // cytotoxicity at 10 µM lookup, key: COC(CNC(=O)C1CCCC1)c1ccc(C)s1 (configuration not stated)
A. 4.45%

Q. Given the molecule `c1cnc(-c2nn3c(CN4CCCCCC4)nnc3s2)cn1` , what is its reported cytotoxicity at 10 µM?
A. 10.8%

Q. cytotoxicity at 10 µM lookup needed for O=C(NCc1cccs1)NCC(O)(c1cccs1)C1CC1 (configuration not stated) , thanks.
A. 1.66%

Q. Which cytotoxicity at 10 µM is listed for `Cc1cccc2c1NC1(CCOCC1)NC2=O` ?
A. -49.6%

---

Experiment: Toxicity liver stage against HepG2, at 10uM
Assay type: cell-based
Parameters: test concentration 10 uM, cell line HepG2-A16-CD81EGFP
Conditions: human, HepG2-A16-CD81EGFP cells; read-out: INHIBITION
measuredQuantity: cytotoxicity at 10 µM (%)
Kindly answer with a numeric value in %, unit omitted.

// below: answered compounds
INSERT INTO results (compound, observedvalue) VALUES
  ('CCS(=O)(=O)N1C[C@H]2CC[C@](O)(c3ccc(C)cc3)[C@H]2C1', -23.2),
  ('CCn1c(C2CCNCC2)nn(Cc2ccc(C(=O)NC)o2)c1=O', 6.8),
  ('CC(=O)N[C@@H]1CN(C2CCN(c3cccc(C)c3C)CC2)C[C@H]1C(C)C', -11.7),
  ('CCCNC(=O)CN1CCOC(c2ccc(Br)cc2)C1 (stereo unspecified)', -2.56),
  ('NC(=O)CC1CCN(C(=O)c2cnc(-c3ccccc3F)s2)CC1', -0.608);

Here is another compound to look at.
Q. I am curious: what cytotoxicity at 10 µM value has been reported for `CN(C)CCOCc1cncc2c1CCN(Cc1ccccn1)C2` ?
A. 2.2

---

Experiment: Toxicity liver stage against HepG2, at 10uM
Format: cell-based
Parameters: test concentration 10 uM, cell line HepG2-A16-CD81EGFP
Conditions: human, HepG2-A16-CD81EGFP cells; read-out: INHIBITION
In this section we review reported cytotoxicity at 10 µM values for a set of compounds.
Reply numerically in %, unit not repeated.

The cases that follow already have their cytotoxicity at 10 µM on record.
INSERT INTO assay_data (compound, measuredquantity, observedvalue) VALUES
  ('CCCc1cc(C(=O)N(C)Cc2cnc3ccccc3n2)n(C)n1', 'cytotoxicity at 10 µM', -19.3),
  ('CS(=O)(=O)c1snnc1C1CCN(Cc2ccncc2)CC1', 'cytotoxicity at 10 µM', 2.31),
  ('COCc1cn(CC2CCN(Cc3c(C)[nH]c4ccccc34)CC2)nn1', 'cytotoxicity at 10 µM', -5.36),
  ('COc1cccc(N2CCN(Cc3nccn3C(C)C)CC2=O)c1', 'cytotoxicity at 10 µM', 1.85),
  ('CS(=O)(=O)NC[C@H]1OC[C@@H]2CCN(CCc3ccccc3)C[C@@H]21', 'cytotoxicity at 10 µM', -4.67),
  ('CC1CCCCN1C1CN(C(=O)c2sccc2S(N)(=O)=O)C1 (centres undefined)', 'cytotoxicity at 10 µM', -1.45),
  ('O=C(NCc1cccnc1)c1cn(CCc2ccccc2)nn1', 'cytotoxicity at 10 µM', 4.39),
  ('CSc1cccc(CNC(=O)C2CC(=O)N(CCN(C)C)C2)c1 (centres undefined)', 'cytotoxicity at 10 µM', -4.15),
  ('COCc1nc(C(=O)N2CCCC2c2c(C)nn(C)c2C)cs1 (centres undefined)', 'cytotoxicity at 10 µM', -4.74),
  ('CCCC(NC(=O)c1ccc(OC)cc1F)c1nnn[nH]1 (centres undefined)', 'cytotoxicity at 10 µM', -7.61);

Q. I have this compound here, Cc1cnn(C2CCCN(C(=O)c3ccc4c(c3)CCC4)C2)c1 (centres undefined) , and I need its recorded cytotoxicity at 10 µM.
A. -4.81

Q. What value of cytotoxicity at 10 µM has been recorded for this entry: CCN1CCN(c2ccccc2NC(=O)N(C)C2CCSC2)CC1 (centres undefined)
A. -56.7

Q. Tell me the measured cytotoxicity at 10 µM of N#CC1(C(=O)N2CCOC(c3ccc(F)cc3)C2)CCCC1 (centres undefined) , please.
A. -3.3
